Molecular target: T1, recombinant human OX40-Fc (human, UniProt P43489 29-214)
T1 construct: also called rh-OX40-Fc; human OX40 hFC (R & D systems)
T1 sequence: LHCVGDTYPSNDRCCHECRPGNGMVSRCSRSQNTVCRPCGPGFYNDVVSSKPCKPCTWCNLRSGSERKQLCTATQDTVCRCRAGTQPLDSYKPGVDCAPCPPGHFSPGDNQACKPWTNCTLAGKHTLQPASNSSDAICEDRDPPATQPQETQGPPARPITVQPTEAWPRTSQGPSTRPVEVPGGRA
Assay: ELISA, OX40-Fc coated, VHH at 8 nM
measuredParameter: OD450
Numbers only.

# binder, OD450
rows = [
    ("pgXX88-27 (VHH, not shown: small tags and cut ends) VHH: EVQLVESGGGLVQPGGSVTLSCATSKDTFSRYHMGWFRQAAGKEREFVAAIANTGTTTDYADFVKGRFTISRDSAKNTVYLQMDSLKVEDTAMYYCVVGSQFMSYDYWGQGTQVTVSS", 1.34),
    ("pgXX88-5 (VHH, not shown: small tags and cut ends) VHH: QVQLVESGGGLVQAGGSLRLSCAASGGTFSTYAMGWFRQAPGKEPQFVARITWSGYTLYTEPVQGRFAISRDNAKNTVYLQMNSLKPEDTAEYFCAADSSEFRDIPNRDSRANYRYWGQGTQVTVSS", 0.103),
    ("pgXX88-60 (VHH, not shown: small tags and cut ends) VHH: EVQLVESGGGLAQPGGSLRLSCAASGFTFSNYAMGWYRQAPGKEREFVAAIDWSTNALLYGDSVKGRFTISRDNAKNTVFLQMSGLKPEDTALYYCAADRAYHTVVLGPPEGMDYWGKGTQVTVSS", 0.668),
]

Now, please, on to the next binder.
Fill in the blank: the reported OD450 of pgXX88-81 (VHH, not shown: small tags and cut ends) VHH: EVQLVESGGGLAQPGSSLRLSCTASGTVFSILSATWFRQAPGKAHEARELVAFISSDGVSMHADSVKGRFTISRDNAKSTVYLQMDNLQPEDTAAYYCKLSNSMMGMEYWGRGTQVTVSS is ____.
0.772
